# Tested on: M14 melanoma
# Assay details: NCI tumour cell line growth inhibition, 48 h
Measurement type: TGI (µM)

{"Compound": "Cn1ccnc1Oc1ccc(Cl)cc1", "Qual": "=", "Reading": 37.2}
{"Compound": "COc1cc(/C=C/c2ccc3c(Br)cc(Br)c(O)c3n2)ccc1O", "Qual": "=", "Reading": 10.6}
{"Compound": "O=c1c2cc(F)ccc2sc2c(NCCCNCCO)nc3ccccc3c12", "Qual": "=", "Reading": 3.62}
{"Compound": "CCC(=O)Nc1ccc(N2C(=O)/C(=C/c3ccc(OC)cc3)N=C2c2ccccc2)cc1", "Qual": "=", "Reading": 43.3}
{"Compound": "ClC1=C(Cl)C(Cl)(Cl)c2c3c(c4c(c21)C(Cl)(Cl)C(Cl)=C4Cl)C(Cl)(Cl)C(Cl)=C3Cl", "Qual": ">", "Reading": 100}
{"Compound": "CC(=O)O[C@@H]1C[C@@]2(C)[C@@H]3CC=C4[C@@H](C[C@H](O)C(=O)C4(C)C)[C@]3(C)C(=O)C[C@]2(C)[C@H]1[C@@](C)(O)C(=O)/C=C/C(C)(C)OC(C)=O", "Qual": "=", "Reading": 14.9}
{"Compound": "CC(C)C[C@H](NC(=O)CCn1ccc2ccccc2c1=O)B(O)O", "Qual": ">", "Reading": 100}
{"Compound": "NC(N)=NCCC(O)(P(=O)(O)O)P(=O)(O)O", "Qual": ">", "Reading": 100}
{"Compound": "N[C@H](COCc1ccccc1)c1ccccc1", "Qual": "=", "Reading": 66}
{"Compound": "NC(Cc1ccc(S(=O)(=O)O)cc1)C(=O)NC(Cc1ccc(S(=O)(=O)O)cc1)C(=O)NC(Cc1ccc(S(=O)(=O)O)cc1)C(=O)NC(Cc1ccc(S(=O)(=O)O)cc1)C(=O)O (stereo not drawn)", "Qual": ">", "Reading": 100}
{"Compound": "CC1(C)CC(=O)c2c(nc3c4c([nH]c(-c5ccc(Br)cc5)c24)CC(C)(C)C3)C1", "Qual": ">", "Reading": 100}
{"Compound": "COc1ccc(OC(=O)CC2Cc3cc(OC)c(OC)c(OC)c3-c3ccc(SC)c(=O)cc32)cc1 (stereo not drawn)", "Qual": ">", "Reading": 100}
{"Compound": "COC(=O)C(Cc1c[nH]c2ccccc12)N=C1Nc2ccncc2S(=O)(=O)N1c1cccc(OC(C)C)c1 (stereo not drawn)", "Qual": ">", "Reading": 100}
{"Compound": "CC(=O)OCC1OC(OCCCOP(=S)(OCCC#N)OCC2OC(n3ccc(N)nc3=O)C(OC(=O)c3ccccc3)C2OC(=O)c2ccccc2)C(OC(C)=O)C(OC(C)=O)C1OC(C)=O (stereo not drawn)", "Qual": ">", "Reading": 100}
{"Compound": "NC1=NC(=O)C(CC(=O)Nc2ccc(Cl)cc2Cl)S1 (stereo not drawn)", "Qual": ">", "Reading": 100}
{"Compound": "COC(=O)C(C(=O)C(=O)Nc1ccc([N+](=O)[O-])cc1)c1nc2ccc([N+](=O)[O-])cc2[nH]c1=O (stereo not drawn)", "Qual": ">", "Reading": 100}
{"Compound": "O=C(/C=C/c1ccc(Cl)c(Cl)c1)c1cccc2ccccc12", "Qual": "=", "Reading": 30.9}
{"Compound": "COc1cc2c3c([nH]c2c(OC)c1OC)CCN(Cc1ccccc1)C3", "Qual": "=", "Reading": 30}

---

Known GI50 of a selection of compounds
# Tested on: SK-MEL-5 melanoma
# Assay details: NCI tumour cell line growth inhibition, 48 h
Measurement type: GI50

{"Compound": "COc1cc2ncc3c(nc4sccn43)c2cc1OC", "Measurement type": "GI50", "Reading": "48.4 µM"}
{"Compound": "CC(C)C[C@H](NC(=O)CCn1ccc2ccccc2c1=O)B(O)O", "Measurement type": "GI50", "Reading": "4.3 µM"}
{"Compound": "c1cc(N2CCN(c3ccc(C4=NCCCN4)cc3)CC2)ccc1C1=NCCCN1", "Measurement type": "GI50", "Reading": "21.2 µM"}
{"Compound": "COc1cccc(Oc2ccccc2NC(=O)CNC(=O)c2cccc3ccccc23)c1", "Measurement type": "GI50", "Reading": "0.216 µM"}
{"Compound": "N/C(=N\\OC(=O)c1ccccc1)C(Cc1ccccc1)C(=O)NOC(=O)c1ccccc1 (centres undefined)", "Measurement type": "GI50", "Reading": "2.72 µM"}
{"Compound": "C[C@@H]1O[C@@H](O[C@@H]2[C@@H](O)[C@H](OCCc3ccc(O)c(O)c3)O[C@H](CO)[C@H]2OC(=O)/C=C/c2ccc(O)c(O)c2)[C@H](O)[C@H](OC2OC[C@](O)(CO)[C@H]2O)[C@H]1O (some centres undefined)", "Measurement type": "GI50", "Reading": "> 100 µM"}
{"Compound": "CCOC(=O)c1cc2c(cc1Cl)SC(=Nc1ccccc1)N(S(=O)(=O)c1ccc(Br)s1)S2(=O)=O", "Measurement type": "GI50", "Reading": "12.1 µM"}
{"Compound": "COc1ccc(Nc2ccnc(N3CCN(c4ccnc5cc(Cl)ccc45)CC3)n2)cc1", "Measurement type": "GI50", "Reading": "0.579 µM"}
{"Compound": "Cc1[nH]c(-c2cc(N)ccc2Cl)c2c1C(=O)CCCC2", "Measurement type": "GI50", "Reading": "6.15 µM"}
{"Compound": "COc1cc2cc(Oc3ccc(NC(=O)c4ccc(Cl)c(Cl)c4)cc3)c(C)nc2cc1OC", "Measurement type": "GI50", "Reading": "4.99 µM"}
{"Compound": "CC1C=CC(OC(=O)C(C)(O)CCC(O)(C(=O)OC2CC(O)C(C(C)C)CC2(C)O)C(C)C)(C(C)C)CC1 (centres undefined)", "Measurement type": "GI50", "Reading": "0.377 µM"}
{"Compound": "COC(=O)c1cc(-c2ccc(OC)c(OC)c2)[nH]c1N/N=C/c1c(Cl)cccc1Cl", "Measurement type": "GI50", "Reading": "0.387 µM"}
{"Compound": "COc1cc(O)c2c(=O)c(OC)c(-c3ccc(OC)c(OC)c3)oc2c1", "Measurement type": "GI50", "Reading": "82 µM"}
{"Compound": "C[n+]1c2ccccc2nc2c(N)cc(N)cc21", "Measurement type": "GI50", "Reading": "2.56 µM"}

---

# System: U251 CNS
Classes used: yes (1) = active, no (0) = inactive

{"Molecule": "COc1ccc(Nc2ccnc(N3CCN(c4ccnc5cc(Cl)ccc45)CC3)n2)cc1", "Label": "no (0)"}
{"Molecule": "COc1cc(C(=O)c2cc(C)c3[nH]c4ccc(O)cc4c3c2C)cc(OC)c1OC", "Label": "yes (1)"}
{"Molecule": "CCc1c(C)nc2sc3c(N)ncnc3c2c1C", "Label": "no (0)"}
{"Molecule": "C[n+]1c2ccccc2nc2c(N)cc(N)cc21", "Label": "no (0)"}
{"Molecule": "C/C(=N\\O)c1cccc(Nc2cc(-n3ccnc3)c3ccccc3n2)c1", "Label": "no (0)"}
{"Molecule": "Nc1n[nH]c2ccc([C@@H]3Nc4cc5c(cc4[C@H]4C6CCC(C6)[C@@H]34)C(=O)NC5)cc12 (stereo partly specified)", "Label": "yes (1)"}

---

# Tested on: HOP-92 NSCLC
# Assay details: NCI tumour cell line growth inhibition, 48 h; in the data active means GI50 below about 0.43 µM; inactive means the rest
Classes used: active, inactive

{"Compound": "O=C1C(OCCOc2ccccc2)=C(OCCOc2ccccc2)C(=O)c2ccccc21", "Label": "inactive"}
{"Compound": "C=CCc1cc(Nc2c3ccc(Cl)cc3nc3ccc(OC)cc23)cc(CN(CC)CC)c1O", "Label": "inactive"}
{"Compound": "N/C(=N\\OC(=O)c1ccccc1)C(Cc1ccccc1)C(=O)NOC(=O)c1ccccc1 (stereo unspecified)", "Label": "inactive"}
{"Compound": "COc1cc(/C=C/c2ccc3c(Br)cc(Br)c(O)c3n2)ccc1O", "Label": "inactive"}
{"Compound": "COc1ccc(/C=C(\\C)[N+](=O)[O-])cc1OC", "Label": "inactive"}
{"Compound": "CC1c2ccccc2CCN1c1ccc(CO)c(Cl)c1 (stereo unspecified)", "Label": "active"}

---

# Test system: RXF-631 renal
# Assay details: NCI tumour cell line growth inhibition, 48 h
Measurement type: TGI (µM)

{"Molecule": "COc1ccc(-c2[nH]c3ccccc3c2CCNS(=O)(=O)c2ccc(C)cc2)cc1", "Measurement type": "TGI", "Qual": ">", "Reading": 10}
{"Molecule": "O=C(/C=C/c1ccc(Cl)c(Cl)c1)c1cccc2ccccc12", "Measurement type": "TGI", "Qual": "=", "Reading": 33.1}
{"Molecule": "CC(C)(C)c1cc2nc(c1)C(C(F)(F)F)(C(F)(F)F)OB(Br)OC2(C(F)(F)F)C(F)(F)F", "Measurement type": "TGI", "Qual": "=", "Reading": 5.35}
{"Molecule": "O=C1C=C(O)C(=Cc2c(O)cc(O)cc2O)C(O)=C1", "Measurement type": "TGI", "Qual": ">", "Reading": 100}
{"Molecule": "Cc1ccccc1-n1c(N)c(-c2nc3ccccc3[nH]2)sc1=S", "Measurement type": "TGI", "Qual": "=", "Reading": 49.1}
{"Molecule": "COc1ccc(OC(=O)CC2Cc3cc(OC)c(OC)c(OC)c3-c3ccc(SC)c(=O)cc32)cc1 (configuration not stated)", "Measurement type": "TGI", "Qual": ">", "Reading": 100}
{"Molecule": "O=C1NC2CCCCCC2C12CCCCC2 (configuration not stated)", "Measurement type": "TGI", "Qual": ">", "Reading": 100}
